Origin of values: paper PMC7098370

# EXPERIMENT DESCRIPTION: Bioelution in simulated intestinal fluid
# STATED CONDITIONS: simulated intestinal fluid pH 7.4, 24 h
READOUT: Bioelution of Co in intestinal fluid (% release)

Example cases with answers are listed next.
COMPOUND	DATA VALUE
[O]=[Co][OH] [CoOOH, Cobalt oxyhydroxide]	0.06 (24 h) % release
[Li+].[O]=[Co][O-] [CoLiO2, Cobalt lithium oxide]	0.02 (24 h) % release
O.O.O.O.O.O.O.O=S(=O)([O-])[O-].[Co+2] [CoSO4, Cobalt sulfate heptahydrate]	64 (24 h) % release

Note: attention shifts to another entry.
stdin: Give the measured Bioelution of Co in intestinal fluid (% release) of [O]=[Co].[O]=[Co][O][Co]=[O] [Co3O4, Tricobalt tetraoxide] .
stdout: 0.05 (24 h) % release
